- Test system: Escherichia coli TOP10;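 further: peptides expressed intracellularly from a pBAD plasmid library in pooled LB shake-flask culture, induced with 0.3% L-arabinose, DNA abundance read by NGS, three biological replicates, DESeq2 with apeglm shrinkage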
- test-protocol: shrunken log2 fold change of peptide-encoding DNA abundance (4.5 h post-induction vs induction); higher = less antimicrobial activity (less host growth inhibition)
- study-conditions: time post-induction: 4.5 h; library: site-saturation at positions 5, 18, 19, 20
Quick list: shrunken log2 fold change per entry.
readout-kind: shrunken log2 fold change

[[record]]
input_sequence = "RRIRYRPPRLPRPRPRPDFPPRP"
data_value = -0.48

[[record]]
input_sequence = "RRIRCRPPRLPRPRPRPFMNPRP"
data_value = -0.00951

[[record]]
input_sequence = "RRIRIRPPRLPRPRPRPWSQPRP"
data_value = -0.738

[[record]]
input_sequence = "RRIRHRPPRLPRPRPRPEWQPRP"
data_value = 0.145

[[record]]
input_sequence = "RRIRIRPPRLPRPRPRPFLCPRP"
data_value = -0.628

[[record]]
input_sequence = "RRIRARPPRLPRPRPRPGYSPRP"
data_value = -0.35

[[record]]
input_sequence = "RRIRMRPPRLPRPRPRPVDHPRP"
data_value = -0.0711

[[record]]
input_sequence = "RRIRTRPPRLPRPRPRPHKLPRP"
data_value = -0.236

[[record]]
input_sequence = "RRIRVRPPRLPRPRPRPGTEPRP"
data_value = 0.0578

[[record]]
input_sequence = "RRIRARPPRLPRPRPRPQKTPRP"
data_value = 0.0194

[[record]]
input_sequence = "RRIRMRPPRLPRPRPRPCCLPRP"
data_value = 0.273

[[record]]
input_sequence = "RRIRIRPPRLPRPRPRPPQTPRP"
data_value = 0.0803

[[record]]
input_sequence = "RRIRHRPPRLPRPRPRPIRAPRP"
data_value = 0.0218

[[record]]
input_sequence = "RRIRYRPPRLPRPRPRPNFKPRP"
data_value = 0.633

[[record]]
input_sequence = "RRIRCRPPRLPRPRPRPIRQPRP"
data_value = -0.0914

[[record]]
input_sequence = "RRIRERPPRLPRPRPRPQDYPRP"
data_value = -0.091

[[record]]
input_sequence = "RRIRPRPPRLPRPRPRPYVCPRP"
data_value = -0.73

[[record]]
input_sequence = "RRIRHRPPRLPRPRPRPHDLPRP"
data_value = 0.0509

[[record]]
input_sequence = "RRIRFRPPRLPRPRPRPMILPRP"
data_value = -0.29

[[record]]
input_sequence = "RRIRHRPPRLPRPRPRPIAVPRP"
data_value = -0.219

[[record]]
input_sequence = "RRIRRRPPRLPRPRPRPSEEPRP"
data_value = 0.125

[[record]]
input_sequence = "RRIRDRPPRLPRPRPRPFWLPRP"
data_value = 0.00235

[[record]]
input_sequence = "RRIRYRPPRLPRPRPRPSMGPRP"
data_value = -0.613

[[record]]
input_sequence = "RRIRIRPPRLPRPRPRPSCCPRP"
data_value = -0.471

[[record]]
input_sequence = "RRIRSRPPRLPRPRPRPRCSPRP"
data_value = 0.0579

[[record]]
input_sequence = "RRIRQRPPRLPRPRPRPMLFPRP"
data_value = -0.0627

[[record]]
input_sequence = "RRIRIRPPRLPRPRPRPRSIPRP"
data_value = 0.0721

[[record]]
input_sequence = "RRIRYRPPRLPRPRPRPYKGPRP"
data_value = -0.721

[[record]]
input_sequence = "RRIRSRPPRLPRPRPRPEQVPRP"
data_value = 0.243

[[record]]
input_sequence = "RRIRIRPPRLPRPRPRPWIDPRP"
data_value = 0.0218

[[record]]
input_sequence = "RRIRLRPPRLPRPRPRPKAAPRP"
data_value = 0.679

[[record]]
input_sequence = "RRIRHRPPRLPRPRPRPAKSPRP"
data_value = 0.076

